tested on: Pyricularia oryzae; assay: whole plant or invertebrate; format: in vivo; conditions: 24 h, read-out: PYRIOR percent control rating
Value Type: pest or weed control at 200 ppm

Q: // fetch Pyricularia oryzae pest or weed control at 200 ppm for O=C1C(SC2CCCCC2)NC(c2cccc(C(=NOCc3ccccc3)c3ccccc3)c2)=NN1CC(F)(F)F (stereo not drawn)
Ans: 0 to 49%

Q: Repeat for the following compound: O=C1CNC(c2ccc(Cl)c(Cl)c2)=NN1CO
Ans: 0 to 49%

Q: Repeat for the following compound: Cc1cc(C)cc(C2=NN(CC(F)(F)F)C(=O)C(SCC(=O)O)N2)c1 (stereo not drawn)
Ans: 80 to 100%

Q: Repeat for the following compound: Cc1cc(C)cc(-c2ncc(=O)n(Cc3c(F)c(F)c(F)c(F)c3F)n2)c1
Ans: 80 to 100%

Q: Repeat for the following compound: Cc1cc(C)cc(C2=NN(CC(F)(F)F)C(=O)C(SCCCCl)N2)c1 (stereo not drawn)
Ans: 80 to 100%

Q: Repeat for the following compound: O=C1CNC(c2cc(Br)cc(-c3ccsc3)c2)=NN1CC(F)(F)F
Ans: 80 to 100%

====

system: Colletotricum lagenarium; assay: Cucumber Anthracnose greenhouse one-day protectant test; assay type: in vivo; conditions: Cucumis sativus, 24 h, cucumber plants, one-day protectant test, 200 ppm application rate; read-out: COLLLA percent control rating
Value Type: pest or weed control at 200 ppm

O=C1CNC(c2ccc(-c3cc(Cl)cc(Cl)c3)nc2)=NN1CCF    50 to 79%
O=c1cnc(-c2ccc(-c3ccc(Cl)s3)nc2)nn1CC(F)(F)F    0 to 49%
Cc1cc(C)cc(C2=NN(CCO)C(=O)CN2)c1    0 to 49%
O=c1cnc(-c2cc(Cl)cc(Cl)c2)nn1CCOc1ccccc1    0 to 49%
CC(=O)OCN1N=C(c2ccc(Cl)c(Cl)c2)NCC1=O    0 to 49%

Let us examine a further case.
Q: Which pest or weed control at 200 ppm is reported for this molecule? O=C1CNC(c2csc(-c3ccccc3)c2)=NN1CC(F)(F)F
Ans: 0 to 49%

====

system: Pyricularia oryzae; experiment: whole plant or invertebrate; type: in vivo; details: 24 h, read-out: PYRIOR percent control rating
Value Type: pest or weed control at 200 ppm

Below, 8 compounds whose answers are already recorded.
O=C1CNC(c2cc(Cl)cc(Cl)c2)=NN1Cc1c(F)c(F)c(F)c(F)c1F    50 to 79%
Cc1cc(C)cc(C2=NN(CC(F)(F)F)C(=O)C(SC3CCCCC3)N2)c1 (stereo not drawn)    80 to 100%
CNc1cc(F)nc(Oc2cccc(C3=NN(CC(F)(F)F)C(=O)CN3)c2)n1    0 to 49%
O=c1cnc(-c2cc(Br)cc(-c3ccsc3)c2)nn1Cc1ccccc1    50 to 79%
O=C1CNC(c2cc(Cl)cc(Cl)c2)=NN1CCOc1ccccc1    80 to 100%
O=C1CNC(c2ccc(N3CCOCC3)cc2)=NN1CC(F)(F)F    80 to 100%
O=C1CNC(c2cccc(OS(=O)(=O)C(F)(F)F)c2)=NN1CC(F)(F)F    80 to 100%
O=c1cnc(-c2cccc(CC3=CCc4ccccc43)c2)nn1CC(F)(F)F    80 to 100%

Let us examine a further case.
Q: // fetch Pyricularia oryzae pest or weed control at 200 ppm for O=C1C(SC2CCCCC2)NC(c2cccc(I)c2)=NN1CC(F)(F)F (stereo not drawn)
Ans: 80 to 100%

====

Catalogue of pest or weed control at 200 ppm readings, one per entry.
system: Pyricularia oryzae; test: whole plant or invertebrate; format: in vivo; details: 24 h, read-out: PYRIOR percent control rating

O=C1CNC(c2cc(Cl)cc(Cl)c2)=NN1CCO    0 to 49%

Q: // fetch Pyricularia oryzae pest or weed control at 200 ppm for CON=C(c1ccccc1)c1cccc(C2=NN(CC(F)(F)F)C(=O)C(SC3CCCCC3)N2)c1 (centres unmarked)
Ans: 80 to 100%

Q: Repeat for the following compound: O=C1CNC(c2cccc(C#Cc3ccccc3)c2)=NN1CC(F)(F)F
Ans: 80 to 100%

Q: Repeat for the following compound: CCCCN1N=C(c2ccc(Oc3cccnc3)cc2)NCC1=O
Ans: 0 to 49%

Q: Repeat for the following compound: O=c1cnc(-c2cccc(C#Cc3ccccc3)c2)nn1CC(F)(F)F
Ans: 80 to 100%

====

tested on: Colletotricum lagenarium; assay: Cucumber Anthracnose greenhouse one-day protectant test; type: in vivo; conditions: Cucumis sativus, 24 h, cucumber plants, one-day protectant test, 200 ppm application rate; read-out: COLLLA percent control rating
Value Type: pest or weed control at 200 ppm

Below, 4 compounds whose answers are already recorded.
O=c1cnc(-c2cccc(Cc3ccccc3)c2)nn1CC(F)(F)F    80 to 100%
Cc1cc(C)cc(-c2ncc(=O)n(CCOc3ccccc3)n2)c1    80 to 100%
O=C1CNC(c2cc(Cl)cc(Cl)c2)=NN1CCOc1ccccc1    80 to 100%
O=C1C(SC2CCCCC2)NC(c2cccc(-c3ccccc3OC(F)(F)F)c2)=NN1CC(F)(F)F (centres unmarked)    0 to 49%

Let us examine a further case.
Q: Which pest or weed control at 200 ppm is reported for this compound? O=c1cnc(-c2cc(Br)cc(-c3ccsc3)c2)nn1CCc1ccccc1
Ans: 0 to 49%

====

Catalogue of pest or weed control at 200 ppm readings, one per entry.
system: Colletotricum lagenarium; assay: Cucumber Anthracnose greenhouse one-day protectant test; type: in vivo; conditions: Cucumis sativus, 24 h, cucumber plants, one-day protectant test, 200 ppm application rate; read-out: COLLLA percent control rating

Cc1cc(C)cc(C2=NN(CC(F)(F)F)C(=O)C(SCCO)N2)c1 (stereo not drawn)    0 to 49%
O=c1cnc(-c2cccc(CC3=CCc4ccccc43)c2)nn1CC(F)(F)F    0 to 49%
O=c1cnc(-c2cccc(C#Cc3ccccc3)c2)nn1CC(F)(F)F    80 to 100%

Q: // fetch Colletotricum lagenarium pest or weed control at 200 ppm for CON=C(c1ccccc1)c1cccc(C2=NN(CC(F)(F)F)C(=O)CN2)c1
Ans: 0 to 49%

Q: Repeat for the following compound: O=c1cnc(-c2cc(-c3ccsc3)cc(-c3ccsc3)c2)nn1CC(F)(F)F
Ans: 0 to 49%

Q: Repeat for the following compound: O=C1CNC(c2ccc(N3CCOCC3)cc2)=NN1CC(F)(F)F
Ans: 0 to 49%

Q: Repeat for the following compound: Cc1cc(C)cc(C2=NN(Cc3c(F)c(F)c(F)c(F)c3F)C(=O)CN2)c1
Ans: 0 to 49%

Q: Repeat for the following compound: O=C1CNC(c2cc(Cl)cc(Cl)c2)=NN1Cc1ccccn1
Ans: 50 to 79%

====

system: Pyricularia oryzae; experiment: whole plant or invertebrate; type: in vivo; settings: 24 h, read-out: PYRIOR percent control rating
Value Type: pest or weed control at 200 ppm

CC(=O)OCN1N=C(c2ccc(Cl)c(Cl)c2)NCC1=O    0 to 49%
O=C1C(SC2CCCCC2)NC(c2cc(Br)cc(Br)c2)=NN1CC(F)(F)F (stereo not drawn)    80 to 100%
O=c1cnc(-c2cc(Cl)cc(Cl)c2)nn1CCOc1ccccc1    0 to 49%
Cc1cc(C)cc(C2=NN(CC(F)(F)F)C(=O)C(OCc3ccccc3)N2)c1 (stereo not drawn)    80 to 100%

Q: Which pest or weed control at 200 ppm is reported for this compound? O=c1cnc(-c2cc(-c3ccsc3)cc(-c3ccsc3)c2)nn1CC(F)(F)F
Ans: 80 to 100%

Q: Repeat for the following compound: COc1ccccc1-c1cccc(C2=NN(CC(F)(F)F)C(=O)C(SC3CCCCC3)N2)c1 (stereo not drawn)
Ans: 80 to 100%

Q: Repeat for the following compound: O=c1cnc(-c2cccc(/C=C\c3ccccc3)c2)nn1CC(F)(F)F
Ans: 80 to 100%

Q: Repeat for the following compound: O=C1CNC(c2cccc(Oc3ncccn3)c2)=NN1CC(F)(F)F
Ans: 0 to 49%

Q: Repeat for the following compound: O=C1CNC(c2cccc(Oc3ccnc(Cl)c3)c2)=NN1CC(F)(F)F
Ans: 0 to 49%

====

test system: Colletotricum lagenarium; experiment: Cucumber Anthracnose greenhouse one-day protectant test; type: in vivo; settings: Cucumis sativus, 24 h, cucumber plants, one-day protectant test, 200 ppm application rate; read-out: COLLLA percent control rating
Value Type: pest or weed control at 200 ppm

Cc1cc(C)cc(C2=NN(CC(F)(F)F)C(=O)C(SCc3ccccc3)N2)c1 (stereo not drawn) [Compound 36]    80 to 100%

Q: Which pest or weed control at 200 ppm is reported for this molecule? O=C1CNC(c2cccc(Oc3ncccn3)c2)=NN1CC(F)(F)F [Compound 31]
Ans: 0 to 49%

Q: Repeat for the following molecule: O=C1CNC(c2cc(Br)cc(-c3ccsc3)c2)=NN1CC(F)(F)F [Compound 67]
Ans: 80 to 100%
